# TEST TARGET: T1, soluble human FcRn (shFcRn) (human, UniProt P55899 24-297; P61769 21-119)
# T1 construct: Biotinylated for the ELISA, amine-coupled to a CM5 chip for SPR; also called biotinylated shFcRn
# T1 sequence (P55899 24-297 limits assumed, chain 1 of 2): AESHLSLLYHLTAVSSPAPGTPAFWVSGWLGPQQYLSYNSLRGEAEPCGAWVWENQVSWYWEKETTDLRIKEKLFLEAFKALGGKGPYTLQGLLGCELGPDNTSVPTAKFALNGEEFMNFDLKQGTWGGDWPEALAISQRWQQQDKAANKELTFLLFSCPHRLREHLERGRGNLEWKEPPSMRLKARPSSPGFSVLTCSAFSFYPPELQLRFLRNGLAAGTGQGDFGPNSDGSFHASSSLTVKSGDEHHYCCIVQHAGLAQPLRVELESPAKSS
# T1 sequence (P61769 21-119 limits assumed, chain 2 of 2): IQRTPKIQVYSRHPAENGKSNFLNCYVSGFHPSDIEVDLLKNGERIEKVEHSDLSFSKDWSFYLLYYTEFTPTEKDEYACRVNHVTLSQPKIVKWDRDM
# ASSAY NOTES: IgG competition ELISA
pIC50: −log10 of the molar value. Bridge positions count the residues as written; N and C are the ends. Square brackets hold non-standard residues; d marks the D form. Ends that are not written are not given here. Phe(3-Cl) = N[C@@H](Cc1cccc(Cl)c1)C(=O)O; Phe(3-Me) = Cc1cccc(C[C@H](N)C(=O)O)c1; Phe(2-Me) = Cc1ccccc1C[C@H](N)C(=O)O; Pen = CC(C)(S)[C@H](N)C(=O)O
// false strictly below 5 in pIC50; true otherwise

Problem: Is the recorded value of pIC50 equal to or greater than 5 for this binder? QRFCTGHXGGLYPCNGP (Pen 4; 3-PyridylAla 8; disulfide 4-14; C-terminal amide) [Peptide No. 59]
Solution: false

Problem: Item QRF[Pen]TGH[Phe(2-Me)]GGLYPCNGP-NH2 (disulfide 4-14; N-terminus assumed; SMILES Cc1ccccc1C[C@@H]1NC(=O)[C@H](Cc2c[nH]cn2)NC(=O)CNC(=O)[C@H]([C@@H](C)O)NC(=O)[C@@H](NC(=O)[C@H](Cc2ccccc2)NC(=O)[C@H](CCCNC(=N)N)NC(=O)[C@@H](N)CCC(N)=O)C(C)(C)SSC[C@@H](C(=O)N[C@@H](CC(N)=O)C(=O)NCC(=O)N2CCC[C@H]2C(N)=O)NC(=O)[C@@H]2CCCN2C(=O)[C@H](Cc2ccc(O)cc2)NC(=O)[C@H](CC(C)C)NC(=O)CNC(=O)CNC1=O) [Peptide No. 88] with pIC50 of 5 or above?
Solution: true

Problem: Exam item: decide whether the reported pIC50 for RF[Pen]TGH[Phe(3-Cl)]GGLYPC-NH2 (disulfide 3-13; N-terminus assumed; SMILES CC(C)C[C@@H]1NC(=O)CNC(=O)CNC(=O)[C@H](Cc2cccc(Cl)c2)NC(=O)[C@H](Cc2c[nH]cn2)NC(=O)CNC(=O)[C@H]([C@@H](C)O)NC(=O)[C@@H](NC(=O)[C@H](Cc2ccccc2)NC(=O)[C@@H](N)CCCNC(=N)N)C(C)(C)SSC[C@@H](C(N)=O)NC(=O)[C@@H]2CCCN2C(=O)[C@H](Cc2ccc(O)cc2)NC1=O) [Peptide No. 222] is at least 5.
Solution: true

Problem: Would you say QRF[Pen]TGH[Phe(3-Me)]GGLYPCNGP-NH2 (disulfide 4-14; N-terminus assumed; SMILES Cc1cccc(C[C@@H]2NC(=O)[C@H](Cc3c[nH]cn3)NC(=O)CNC(=O)[C@H]([C@@H](C)O)NC(=O)[C@@H](NC(=O)[C@H](Cc3ccccc3)NC(=O)[C@H](CCCNC(=N)N)NC(=O)[C@@H](N)CCC(N)=O)C(C)(C)SSC[C@@H](C(=O)N[C@@H](CC(N)=O)C(=O)NCC(=O)N3CCC[C@H]3C(N)=O)NC(=O)[C@@H]3CCCN3C(=O)[C@H](Cc3ccc(O)cc3)NC(=O)[C@H](CC(C)C)NC(=O)CNC(=O)CNC2=O)c1) [Peptide No. 89] shows pIC50 at minimum 5?
Solution: true

Problem: pIC50 >= 5 for QRF[Pen]TGHWGGLYPCNGP-NH2 (disulfide 4-14; N-terminus assumed; SMILES CC(C)C[C@@H]1NC(=O)CNC(=O)CNC(=O)[C@H](Cc2c[nH]c3ccccc23)NC(=O)[C@H](Cc2c[nH]cn2)NC(=O)CNC(=O)[C@H]([C@@H](C)O)NC(=O)[C@@H](NC(=O)[C@H](Cc2ccccc2)NC(=O)[C@H](CCCNC(=N)N)NC(=O)[C@@H](N)CCC(N)=O)C(C)(C)SSC[C@@H](C(=O)N[C@@H](CC(N)=O)C(=O)NCC(=O)N2CCC[C@H]2C(N)=O)NC(=O)[C@@H]2CCCN2C(=O)[C@H](Cc2ccc(O)cc2)NC1=O) [Peptide No. 95] ?
Solution: false
